- System: CP325
- ASSAY_TEXT: qHTS profiling for inhibitors of Plasmodium falciparum proliferation (AID 504749); note: nearly all actives have a fitted effect of over 60% in size
- ASSAY_CONTEXT: P. falciparum in erythrocytes, SYBR Green DNA, 72 h; series mostly up to 28.7 µM
Records with an inconclusive call do not appear. Calls of active or inactive are those of the source. Calls come from the whole dose curve; as a rule, active = well fitted inhibition curve with a large enough effect; inconclusive = small, poorly fitted or top-dose-only effect; inactive = flat fitted curve, though single readings scatter.
Give your call using only these classes: t (active), f (inactive)

Just curious, what result did Cc1cc2nc3c(=O)[nH]c(=O)nc-3n(CC(O)C(O)C(O)CO)c2cc1C (stereo not drawn) get here?
f

Just curious, what result did N#CC(c1ccc(Cl)cc1)c1c(Cl)cc(-n2ncc(=O)[nH]c2=O)cc1Cl (stereo not drawn) get here?
f

Just curious, what result did NS(=O)(=O)c1cc(Cl)c(Cl)c(S(N)(=O)=O)c1 get here?
f

Just curious, what result did O=C(O)c1nc(=O)[nH]c(=O)[nH]1 get here?
f

Just curious, what result did CC(C)CN(C[C@@H](O)[C@H](Cc1ccccc1)NC(=O)O[C@H]1CO[C@H]2OCC[C@H]21)S(=O)(=O)c1ccc(N)cc1 get here?
f

Just curious, what result did Clc1ccc(COC(Cn2ccnc2)c2ccc(Cl)cc2Cl)c(Cl)c1 (stereo not drawn) get here?
t

Just curious, what result did N#Cc1c(N(CC(=O)O)CC(=O)O)sc(C(=O)O)c1CC(=O)O get here?
f

Just curious, what result did O=C1C(CCC(O)c2ccc(F)cc2)C(c2ccc(O)cc2)N1c1ccc(F)cc1 (stereo not drawn) get here?
f

====

- ASSAY_TEXT: qHTS profiling for inhibitors of Plasmodium falciparum (DD2) proliferation (AID 743323)
- ASSAY_CONTEXT: lower = more inhibition; at 28.7 µM (top of the series) unless noted
METRIC_NAME: activity, percent of control
Reply with the number and its unit after it.

Looking up CC(O)=C(C#N)C(=O)Nc1ccc(C(F)(F)F)cc1 , I see its activity, percent of control listed as 95.5%

Looking up CNC(=O)c1cc(Oc2ccc(NC(=O)Nc3ccc(Cl)c(C(F)(F)F)c3)c(F)c2)ccn1 , I see its activity, percent of control listed as 5.46%

Looking up CC(=O)NCCC(=O)N[C@@H](CCC(N)=O)C(=O)N[C@@H](CO)C(=O)N[C@@H](CCC(N)=O)C(=O)N[C@@H](CCC(N)=O)C(=O)N[C@H](C(=O)N[C@@H](Cc1ccccc1)C(=O)N[C@]1(C)CCCCCCC=CCCC[C@@](C)(C(=O)N[C@@H](CCC(N)=O)C(=O)N[C@@H](CC(N)=O)C(N)=O)NC(=O)[C@H](CC(C)C)NC(=O)[C@H](CC(C)C)NC(=O)[C@@H](CCCNC(=N)N)NC(=O)[C@H](Cc2c[nH]c3ccccc23)NC(=O)[C@H](CC(C)C)NC(=O)[C@H](CC(N)=O)NC1=O)[C@H](C)O , I see its activity, percent of control listed as 68.3%

Looking up CCCCCCCCCCCCCC(=O)N[C@H](CO)[C@H](O)c1ccc([N+](=O)[O-])cc1 , I see its activity, percent of control listed as 82.3%

Looking up Cn1cc(-c2ccc3nnc(Sc4ccc5ncccc5c4)n3n2)cn1 , I see its activity, percent of control listed as 95.2%

Looking up CN(C)CC[C@H](CSc1ccccc1)Nc1ccc(S(=O)(=O)NC(=O)c2ccc(N3CCN(Cc4ccccc4-c4ccc(Cl)cc4)CC3)cc2)cc1[N+](=O)[O-] , I see its activity, percent of control listed as 9.74%

Looking up CCc1cc(-c2n[nH]c(C)c2-c2ccc3c(c2)OCCO3)c(O)cc1O , I see its activity, percent of control listed as 90.4%

Looking up Cc1cccc(Nc2nc(N[C@@H]3CCCC[C@H]3N)ncc2C(N)=O)c1 , I see its activity, percent of control listed as 4.78%

Looking up CO[C@@H]1C(N(C)C(=O)c2ccccc2)C[C@H]2O[C@]1(C)n1c3ccccc3c3c4c(c5c6ccccc6n2c5c31)C(=O)NC4=O (stereo not given in full) , I see its activity, percent of control listed as 103%

Looking up OCCn1cc(-c2ccc3c(c2)CCC3=NO)c(-c2ccncc2)n1 , I see its activity, percent of control listed as 97.1%

The values you see were collected from PubChem BioAssay (NCATS).
